Just for reference, ChEMBL document CHEMBL1201862 is where these values come from.

Test system: SF-539
Assay: NCI tumour cell line growth inhibition, 48 h
Activity calls are given as the source filed them. Cut-off read from the data, not from the text of the source: active = GI50 up to about 1.1 µM and inactive = higher.
Measured GI50 accompanies every entry in the list below.
property_name: GI50

> print(dat)
                                   compound  property.name       measured.value
1                O=C(/C=N/c1ccccc1S)c1ccco1           GI50   14.1 µM (inactive)
2         CN(C)Cc1cc(C(C)(C)C)cc(CN(C)C)c1O           GI50   86.7 µM (inactive)
3  Cc1ccc(NC(=O)COC(=O)c2cccc3c(=O)c4ccccc4[nH]c23)cc1           GI50   22.9 µM (inactive)
4     CC(=O)N1[C@H](C(=O)O)CS[C@H]1c1ccncc1           GI50  > 100 µM (inactive)
5  C=CCO[C@H]1CC[C@@]2(C)C(CC[C@]3(C)C2CC=C2[C@@H]4[C@@H](C)C(C)CC[C@]4(C(=O)O)CCC23C)C1(C)C (stereo partly specified)           GI50     17 µM (inactive)
6  CC(C)(C)[Si](C)(C)OCC1OC(n2ccc(=O)[nH]c2=O)C(O[Si](C)(C)C(C)(C)C)[C@@]12O[C@H]2C(N)=O (stereo partly specified)           GI50   3.05 µM (inactive)
